Each item that follows carries a reported Papp B→A at 60 min, 10 μM.
Test: Caco-2 permeability, Method B7
Assay type: in vitro ADME, human
Settings: human; Caco-2, 10 μM, without P-gp inhibitor
experimental-readout: Papp B→A at 60 min, 10 μM

{"columns": ["molecule", "value"],
 "data": [
  ["CC(C)[C@@H]1NCCOc2ccccc2C2CCC(C2)NC(=O)[C@@H](Cc2ccccc2)NC(=O)[C@H](C(C)O)N(C)C1=O (stereo partly shown) [Compound 1848]", "64.2 ×10⁻⁶ cm/s"],
  ["CC(O)[C@H]1C(=O)N[C@H](Cc2ccccc2)C(=O)NCCCc2cccc3c2OC(CC3)CN[C@@H](C2CC2)C(=O)N1C (stereo partly shown) [Compound 1778]", "32.7 ×10⁻⁶ cm/s"],
  ["CC(O)[C@H]1C(=O)N[C@H](Cc2ccccc2)C(=O)NCC#Cc2ccc(F)cc2OCCN[C@@H](C2(C)CC2)C(=O)N1C (stereo partly shown) [Compound 1918]", "42.6 ×10⁻⁶ cm/s"],
  ["CC[C@@H]1CCc2ccc(F)cc2OCCN[C@@H](C(C)C)C(=O)N(C)[C@@H](C(C)O)C(=O)N[C@H](Cc2c[nH]c3ccccc23)C(=O)N1 (stereo partly shown) [Compound 1505]", "26.7 ×10⁻⁶ cm/s"],
  ["CC(O)[C@H]1C(=O)N[C@H](Cc2ccccc2)C(=O)NCC#Cc2ccccc2OCCN[C@@H](C2(C)CC2)C(=O)N1C (stereo partly shown) [Compound 1878]", "21.7 ×10⁻⁶ cm/s"],
  ["CC(C)[C@@H]1NCCOc2ccccc2C#C[C@@H](C)NC(=O)[C@@H](Cc2ccccc2)NC(=O)[C@H](C(C)O)N(C)C1=O (stereo partly shown) [Compound 1688]", "41.8 ×10⁻⁶ cm/s"],
  ["CC(C)[C@@H]1NCCOc2ccccc2C[C@H](O)[C@@H](C)NC(=O)[C@@H](Cc2cccc(F)c2)NC(=O)[C@H](C(C)O)N(C)C1=O (stereo partly shown) [Compound 1503]", "12 ×10⁻⁶ cm/s"]
]}

* * *

Assay: Metabolic stability in human liver microsomes, Method B8
Format: in vitro ADME
Conditions: human liver microsomes 0.8 mg/mL, 5 μM compound, 37° C.
Source text: B8. Metabolic Stability in Human Liver Microsomes The liver is the primary site for phase I (oxidation) and phase II (glucuronidation) enzymatic activity responsible for xenobiotic metabolism. Human liver microsomes are used as in vitro screen of metabolic activity for candidate drugs. Similar studies can be run with microsomes from other species, such as those used for in vivo studies, to determine any significant species differences in the stability profile. […]
experimental-readout: HLM, metabolic stability in human liver microsomes (μL/min/mg protein)

{"columns": ["compound", "unit-name", "value"],
 "data": [
  ["CC[C@@H]1NCCOc2ccccc2/C=C/CNC(=O)[C@@H](Cc2ccc(Cl)cc2)NC(=O)[C@H](C(C)O)N(C)C1=O (stereo partly shown)", "μL/min/mg protein", 52.2],
  ["CC(C)[C@@H]1NCCOc2ccccc2C#CCNC(=O)[C@@H](Cc2ccccc2)NC(=O)[C@H](C(C)O)N(C)C1=O (stereo partly shown)", "μL/min/mg protein", 58.2],
  ["CC(C)[C@@H]1NCCOc2cc(F)ccc2CC[C@@H](C)NC(=O)[C@@H](Cc2cccc(F)c2)NC(=O)[C@H](C(C)O)N(C)C1=O (stereo partly shown)", "μL/min/mg protein", 23.6],
  ["CCC(C)C1NCCOc2ccccc2C=CCNC(=O)C(Cc2ccc(Cl)cc2)NC(=O)C(C(C)O)N(C)C1=O (stereo not shown)", "μL/min/mg protein", 61.9]
]}

* * *

Molecular target: CYP3A4 (Homo sapiens, UniProt P08684)
Sequence (P08684 whole entry): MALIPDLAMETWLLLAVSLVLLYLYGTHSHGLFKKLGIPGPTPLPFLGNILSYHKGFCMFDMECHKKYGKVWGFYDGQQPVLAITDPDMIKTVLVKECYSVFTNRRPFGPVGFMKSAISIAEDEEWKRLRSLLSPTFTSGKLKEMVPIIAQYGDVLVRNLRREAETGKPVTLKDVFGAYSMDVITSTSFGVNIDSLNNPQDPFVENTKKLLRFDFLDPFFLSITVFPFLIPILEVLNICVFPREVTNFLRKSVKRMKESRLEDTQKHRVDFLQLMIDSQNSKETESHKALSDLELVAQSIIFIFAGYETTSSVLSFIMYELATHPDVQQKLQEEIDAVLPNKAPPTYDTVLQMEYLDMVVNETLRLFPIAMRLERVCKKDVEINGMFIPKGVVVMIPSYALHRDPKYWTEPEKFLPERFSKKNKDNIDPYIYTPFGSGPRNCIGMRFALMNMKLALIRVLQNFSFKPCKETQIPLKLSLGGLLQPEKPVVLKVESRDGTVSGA
Experiment: biochemical
pIC50: −log10 of the molar value.
Each item that follows carries a reported pIC50.

{"columns": ["compound", "pIC50"],
 "data": [
  ["CC(O)[C@H]1C(=O)N[C@H](Cc2ccccc2)C(=O)NCCCc2cccc3c2OC(CC3)CN[C@@H](C2CC2)C(=O)N1C (stereo partly shown) [Compound 1778]", 5.11],
  ["CC(O)[C@H]1C(=O)N[C@H](Cc2ccccc2)C(=O)NCC#Cc2ccccc2OCCN[C@@H](C2(C)CC2)C(=O)N1C (stereo partly shown) [Compound 1878]", 4.94],
  ["CC(C)[C@@H]1NCCOc2ccccc2C2CCC(C2)NC(=O)[C@@H](Cc2ccccc2)NC(=O)[C@H](C(C)O)N(C)C1=O (stereo partly shown) [Compound 1848]", 5.10],
  ["CC(C)[C@@H]1NCCOc2ccccc2/C=C/CNC(=O)[C@@H](Cc2ccccc2)NC(=O)[C@H](C(C)O)N(C)C1=O (stereo partly shown) [Compound 1319]", 5.10],
  ["CC(C)[C@@H]1NCCOc2ccccc2C2CCC(C2)NC(=O)[C@@H](Cc2ccc(F)cc2)NC(=O)[C@H](C(C)O)N(C)C1=O (stereo partly shown) [Compound 1903]", 5.05],
  ["CC(C)[C@@H]1NCCOc2ccccc2C#C[C@@H](C)NC(=O)[C@@H](Cc2ccccc2)NC(=O)[C@H](C(C)O)N(C)C1=O (stereo partly shown) [Compound 1688]", 5.07],
  ["CC(O)[C@H]1C(=O)N[C@H](Cc2ccccc2)C(=O)NCC#Cc2c(F)cccc2OCCN[C@@H](C2(C)CC2)C(=O)N1C (stereo partly shown) [Compound 1876]", 5.07]
]}

* * *

Experiment: Pharmacokinetic analysis (intravenous and oral), Method B9
Type: in vivo
Conditions: Table 10b; 2 mg/mL intravenous typically employed
Entry flag: y if Cl reaches 10 mL/min/kg; n if it does not.

{"columns": ["molecule", "class-name"],
 "data": [
  ["CC(O)[C@H]1C(=O)N[C@H](Cc2c[nH]c3ccccc23)C(=O)N[C@H](C)C#Cc2ccc(F)cc2O[C@H](C)CN[C@@H](C2(C)CC2)C(=O)N1C (stereo partly drawn) [Compound 1720]", "y"],
  ["CC(O)[C@H]1C(=O)N[C@H](Cc2c[nH]c3ccccc23)C(=O)N[C@H](C)C#Cc2ccccc2OCCN[C@@H](C2(C)CC2)C(=O)N1C (stereo partly drawn) [Compound 1713]", "y"],
  ["CC[C@@H]1C#Cc2ccc(F)cc2OCCN[C@@H](C(C)C)C(=O)N(C)[C@@H](C(C)O)C(=O)N[C@H](Cc2ccccc2)C(=O)N1 (stereo partly drawn) [Compound 1759]", "y"],
  ["CCC1CCc2ccc(F)cc2OC(C)CNC(C2(C)CC2)C(=O)N(C)C(C(C)O)C(=O)NC(Cc2ccccc2)C(=O)N1 (stereo not drawn) [Compound 1705]", "n"],
  ["CC(C)C1NCCOc2cc(F)ccc2C#CCNC(=O)C(Cc2c[nH]c3ccccc23)NC(=O)C(C(C)O)N(C)C1=O (stereo not drawn) [Compound 1693]", "y"],
  ["CC[C@@H]1C#Cc2c(F)cccc2OCCN[C@@H](C(C)C)C(=O)N(C)[C@@H](C(C)O)C(=O)N[C@H](Cc2c[nH]c3ccccc23)C(=O)N1 (stereo partly drawn) [Compound 1726]", "n"],
  ["CC[C@@H]1C#Cc2ccccc2OCCN[C@@H](C(C)C)C(=O)N(C)[C@@H](C(C)O)C(=O)N[C@H](Cc2c[nH]c3ccccc23)C(=O)N1 (stereo partly drawn) [Compound 1754]", "n"],
  ["CC[C@@H]1C#Cc2ccc(F)cc2OCCN[C@@H](C(C)C)C(=O)N(C)[C@@H](C(C)O)C(=O)N[C@H](Cc2c[nH]c3ccccc23)C(=O)N1 (stereo partly drawn) [Compound 1755]", "y"]
]}

* * *

Target: human ghrelin receptor (GRLN, growth hormone secretagogue receptor, hGHS-R1a) (Homo sapiens, UniProt Q92847)
Construct: purchased PerkinElmer BioSignal #RBHGHSM, lot#1887; host or cells: HEK-293 cells, stably transfected (membranes)
Sequence (Q92847 whole entry): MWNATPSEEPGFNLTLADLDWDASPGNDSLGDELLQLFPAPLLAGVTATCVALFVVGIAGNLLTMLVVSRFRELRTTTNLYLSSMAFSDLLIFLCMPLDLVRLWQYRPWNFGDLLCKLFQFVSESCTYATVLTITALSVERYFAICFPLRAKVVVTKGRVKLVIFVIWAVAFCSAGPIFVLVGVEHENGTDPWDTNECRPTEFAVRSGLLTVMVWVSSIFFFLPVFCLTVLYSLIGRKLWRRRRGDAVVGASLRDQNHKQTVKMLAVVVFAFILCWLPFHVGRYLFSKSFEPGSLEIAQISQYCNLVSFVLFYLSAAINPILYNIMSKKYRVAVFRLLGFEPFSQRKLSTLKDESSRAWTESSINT
Experiment: Competitive radioligand binding assay (ghrelin receptor), Method B1
Conditions: Ghrelin receptor binding activity, Method B1

{"columns": ["compound", "IC50"],
 "data": [
  ["CC[C@@H]1CCc2c(cccc2C(F)(F)F)OCCN[C@@H](C(C)C)C(=O)N(C)[C@@H](C(C)O)C(=O)N[C@H](Cc2ccc(F)cc2)C(=O)N1 (stereo partly drawn)", "> 500 nM"],
  ["CC(C)[C@@H]1NCCOc2ccccc2C#C[C@@H](C)NC(=O)[C@@H](Cc2ccc(F)cc2)NC(=O)[C@H](C(C)O)N(C)C1=O (stereo partly drawn)", "1 to 10 nM"],
  ["CCC(C)[C@@H]1N[C@@H](C)COc2ccccc2CCCNC(=O)[C@@H](Cc2ccccc2)NC(=O)[C@H](C(C)O)N(C)C1=O (stereo partly drawn)", "> 500 nM"]
]}

* * *

Biological target: CYP2D6 (Homo sapiens, UniProt P10635)
Sequence (P10635 whole entry): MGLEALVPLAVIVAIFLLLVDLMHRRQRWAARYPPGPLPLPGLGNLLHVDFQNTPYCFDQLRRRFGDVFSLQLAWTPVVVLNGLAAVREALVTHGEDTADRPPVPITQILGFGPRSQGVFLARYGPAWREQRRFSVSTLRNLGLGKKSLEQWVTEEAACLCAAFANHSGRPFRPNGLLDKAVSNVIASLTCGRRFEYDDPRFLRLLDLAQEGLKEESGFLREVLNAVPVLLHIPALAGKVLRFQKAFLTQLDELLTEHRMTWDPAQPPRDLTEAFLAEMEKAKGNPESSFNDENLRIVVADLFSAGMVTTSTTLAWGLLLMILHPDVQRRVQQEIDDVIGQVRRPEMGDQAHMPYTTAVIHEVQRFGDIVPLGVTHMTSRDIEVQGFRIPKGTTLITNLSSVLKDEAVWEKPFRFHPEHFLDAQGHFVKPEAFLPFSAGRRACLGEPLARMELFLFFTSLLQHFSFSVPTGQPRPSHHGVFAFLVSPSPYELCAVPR
Test: Cytochrome P450 inhibition, Method B6
Conditions: read-out: IC50 CYP 2D6; Table 4b; dextromethorphan used as substrate
pIC50: −log10 of the molar value.
Each item that follows carries a reported pIC50.
experimental-readout: pIC50

{"columns": ["compound", "assayed-system", "value"],
 "data": [
  ["CC(C)[C@@H]1NCCOc2ccccc2CC[C@@H](C)NC(=O)[C@@H](Cc2c[nH]c3ccccc23)NC(=O)[C@H](C(C)O)N(C)C1=O (stereo partly shown)", "CYP2D6 (Homo sapiens, UniProt P10635)", "< 4.70"],
  ["CCC(C)[C@@H]1NCCOc2ccccc2/C=C/CNC(=O)[C@@H](Cc2ccccc2F)NC(=O)[C@H](C(C)O)N(C)C1=O (stereo partly shown)", "CYP2D6 (Homo sapiens, UniProt P10635)", "< 5.30"],
  ["CCC(C)[C@@H]1NCCOc2ccccc2/C=C/CNC(=O)[C@@H](Cc2ccccc2)NC(=O)[C@H](C(C)O)N(C)C1=O (stereo partly shown)", "CYP2D6 (Homo sapiens, UniProt P10635)", "< 5.30"],
  ["CC(C)[C@@H]1NCCOc2cccc(F)c2CC[C@@H](C)NC(=O)[C@@H](Cc2c[nH]c3ccccc23)NC(=O)[C@H](C(C)O)N(C)C1=O (stereo partly shown)", "CYP2D6 (Homo sapiens, UniProt P10635)", "< 4.70"],
  ["COC(C)[C@@H]1NCCOc2ccccc2/C=C/CNC(=O)[C@@H](Cc2ccccc2)NC(=O)[C@H](C(C)O)N(C)C1=O (stereo partly shown)", "CYP2D6 (Homo sapiens, UniProt P10635)", "< 5.30"],
  ["CC(C)[C@@H]1NCCOc2ccccc2CC[C@@H](C)NC(=O)[C@@H](Cc2ccsc2)NC(=O)[C@H](C(C)O)N(C)C1=O (stereo partly shown)", "CYP2D6 (Homo sapiens, UniProt P10635)", "< 4.70"],
  ["CCC(C)[C@@H]1NCCOc2ccccc2CC[C@@H](C)NC(=O)[C@@H](Cc2ccccc2)NC(=O)[C@H](C(C)O)N(C)C1=O (stereo partly shown)", "CYP2D6 (Homo sapiens, UniProt P10635)", "< 4.70"]
]}
